- ASSAY_TARGET: T1, recombinant cynoPD-1 (construct not stated) (cynomolgus monkey, UniProt B0LAJ3 25-170)
- T1 construct: not shown: probably His as elsewhere
- T1 sequence (B0LAJ3 entry or part of it limits assumed): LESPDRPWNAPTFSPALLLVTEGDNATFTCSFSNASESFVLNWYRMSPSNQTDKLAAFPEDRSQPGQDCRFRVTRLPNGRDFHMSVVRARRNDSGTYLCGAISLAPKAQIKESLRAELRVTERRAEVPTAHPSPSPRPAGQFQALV
- TEST_NAME: ELISA
Form field: Max OD (one value per entry).
The answer is to be given in OD; state only the numeric part.

BINDER | Max OD (OD)
XVT458-z2-m4 (antibody, V domains shown, IgG format; also called z2_XVT458m4) VH: QVQLVQSGAEVKKPGASVKVSCKASGYTFTNFYIHWVRQAPGQGLEWMGRIYPNYGITAYNQKFKDRVTMTVDTSTSTAYMELRSLRSDDTAVYYCARGYSYAMDYWGQGTTVTVSS VL: DIQMTQSPSSVSASVGDRVTITCSASQGISGDLNWYQQKPGKAPKLLIYHTSSRHSGVPSRFSGSGSGTDFTLTISSLQPEDFATYYCQGYSKDLLTFGGGTKLEIK | 3.54

(Q) Endpoint output: Max OD of XVT458-z2-m2 (antibody, V domains shown, IgG format; also called z2_XVT458m2) VH: QVQLVQSGAEVKKPGASVKVSCKASGYTFTNFYIHWVRQAPGQGLEWMGRIYPNYGFTAYNQKFKDRVTMTVDTSTSTAYMELRSLRSDDTAVYYCARGYSYAMDYWGQGTTVTVSS VL: DIQMTQSPSSVSASVGDRVTITCSASQGIYGDLNWYQQKPGKAPKLLIYHTSSLHSGVPSRFSGSGSGTDFTLTISSLQPEDFATYYCQAYSKDLLTFGGGTKLEIK . Value?
(A) 3.56

(Q) Endpoint output: Max OD of XVT458-z2-m1 (antibody, V domains shown, IgG format; also called z2-XVT458-m1; z2_XVT458m1) VH: QVQLVQSGAEVKKPGASVKVSCKASGYTFTNFYIHWVRQAPGQGLEWMGSIYPNYGFTAYNQKFKDRVTMTVDTSTSTAYMELRSLRSDDTAVYYCARGYSYAMDYWGQGTTVTVSS VL: DIQMTQSPSSVSASVGDRVTITCSASQGIWGDLNWYQQKPGKAPKLLIYHTSQLHSDVPSRFSGSGSGTDFTLTISSLQPEDFATYYCQGYSKDLLTFGGGTKLEIK . Value?
(A) 3.58

The reported measurements were obtained from patent US20260207767A1.
